The origin of these recorded values is patent EP1135374B9.

target: αvβ3 receptor (purified from human placenta) (Homo sapiens, UniProt P05106+P06756); construct: αvβ3 receptor (purified from human placenta); from tissue; host or cells: human placenta; assay: competition radioligand binding assay, 125I-echistatin to αvβ3 receptor; conditions: Table 10; αvβ3, inhibition of specific 125I-echistatin binding
Labelling: IC50 reported below 4 nM becomes fulfilled; at or above becomes not fulfilled.

>  <molecule>
CCOC(=O)CNC(=O)N(Cc1ccc(C(=O)NC[C@H](NC(=O)OCc2ccccc2)C(=O)O)cc1)Cc1nc2ccccc2[nH]1

>  <discrete-label>
fulfilled

$$$$
>  <molecule>
CCOC(=O)[C@H](CCSC)NC(=O)N(Cc1ccc(C(=O)NC[C@H](NC(=O)OCc2ccccc2)C(=O)O)cc1)Cc1nc2ccccc2[nH]1

>  <discrete-label>
fulfilled

$$$$
>  <molecule>
COCCC(=O)N(Cc1ccc(C(=O)NC[C@H](NC(=O)OCc2ccccc2)C(=O)O)cc1)Cc1nc2ccccc2[nH]1

>  <discrete-label>
not fulfilled

$$$$
>  <molecule>
O=C(N[C@@H](CNC(=O)c1ccc(CN(Cc2nc3ccccc3[nH]2)C(=O)Nc2cccc3ccccc23)cc1)C(=O)O)OCc1ccccc1

>  <discrete-label>
not fulfilled

$$$$
>  <molecule>
O=C(N[C@@H](CNC(=O)c1ccc(CN(Cc2nc3ccccc3[nH]2)C(=O)C2CC2c2ccccc2)cc1)C(=O)O)OCc1ccccc1 (stereo partly drawn)

>  <discrete-label>
not fulfilled

$$$$
>  <molecule>
COCCNC(=S)N(Cc1ccc(C(=O)NC[C@H](NC(=O)OCc2ccccc2)C(=O)O)cc1)Cc1nc2ccccc2[nH]1

>  <discrete-label>
fulfilled

$$$$
>  <molecule>
O=C(N[C@@H](CNC(=O)c1ccc(CN(Cc2nc3ccccc3[nH]2)C(=O)CCc2ccccc2)cc1)C(=O)O)OCc1ccccc1

>  <discrete-label>
not fulfilled

$$$$
>  <molecule>
O=C(N[C@@H](CNC(=O)c1ccc(CN(Cc2nc3ccccc3[nH]2)C(=S)NCCc2ccccc2)cc1)C(=O)O)OCc1ccccc1

>  <discrete-label>
not fulfilled

$$$$

Input: IC50 under 4 nM? Item: CCOC(=O)[C@@H](NC(=O)N(Cc1ccc(C(=O)NC[C@H](NC(=O)OCc2ccccc2)C(=O)O)cc1)Cc1nc2ccccc2[nH]1)C(C)C
Output: fulfilled

====

molecular target: αvβ3 receptor (purified from human placenta) (Homo sapiens, UniProt P05106+P06756); construct: αvβ3 receptor (purified from human placenta); from tissue; host or cells: human placenta; assay: competition radioligand binding assay, 125I-echistatin to αvβ3 receptor; settings: Table 10; αvβ3, inhibition of specific 125I-echistatin binding
value-type: pIC50
Answers are plain numbers, as −log10 of the molar value.

Some compounds with known pIC50 results, for comparison:
>  <compound>
O=C(N[C@@H](CNC(=O)c1ccc(CN(Cc2nc3ccccc3[nH]2)C(=O)Nc2ccc(-c3ccccc3)cc2)cc1)C(=O)O)OCc1ccccc1

>  <pIC50>
7.87

$$$$
>  <compound>
O=C(N[C@@H](CNC(=O)c1ccc(CN(Cc2nc3ccccc3[nH]2)C(=O)NC23CC4CC(CC(C4)C2)C3)cc1)C(=O)O)OCc1ccccc1

>  <pIC50>
8.24

$$$$

Could you report pIC50 for every entry in the following list?
1. CCOc1ccc(NC(=O)N(Cc2ccc(C(=O)NC[C@H](NC(=O)OCc3ccccc3)C(=O)O)cc2)Cc2nc3ccccc3[nH]2)cc1
2. CN(Cc1ccc(C(=O)NC[C@H](NC(=O)OCc2ccccc2)C(=O)O)cc1)Cc1nc2ccccc2[nH]1
3. O=C(N[C@@H](CNC(=O)c1ccc(CN(Cc2nc3ccccc3[nH]2)C(=S)NC2CCCCC2)cc1)C(=O)O)OCc1ccccc1
4. COc1ccc(NC(=S)N(Cc2ccc(C(=O)NC[C@H](NC(=O)OCc3ccccc3)C(=O)O)cc2)Cc2nc3ccccc3[nH]2)cc1
5. CC(NC(=O)N(Cc1ccc(C(=O)NC[C@H](NC(=O)OCc2ccccc2)C(=O)O)cc1)Cc1nc2ccccc2[nH]1)c1cccc2ccccc12 (stereo partly shown)

Output:
1. 8.19
2. 7.77
3. 8.60
4. 8.57
5. 7.93

Could you report pIC50 for every entry in the following list?
1. O=C(N[C@@H](CNC(=O)c1ccc(CN(Cc2nc3ccccc3[nH]2)C(=O)COc2ccccc2)cc1)C(=O)O)OCc1ccccc1
2. CSCC(=O)N(Cc1ccc(C(=O)NC[C@H](NC(=O)OCc2ccccc2)C(=O)O)cc1)Cc1nc2ccccc2[nH]1
3. CCCNC(=O)N(Cc1ccc(C(=O)NC[C@H](NC(=O)OCc2ccccc2)C(=O)O)cc1)Cc1nc2ccccc2[nH]1

Output:
1: 8.05; 2: 8.26; 3: 8.51
